system: DLD-1 colon; test: NCI tumour cell line growth inhibition, 48 h
Reported TGI values for a set of compounds

compound: O=C(c1ccccc1O)c1cc(-c2ncc3c(=O)c4ccccc4oc3n2)c(-c2ccccc2O)[nH]c1=O
TGI: > 61.5 µM

compound: COc1ccc(C2=C(Cl)c3cc(OC)c(OC)cc3C2)cc1OC
TGI: > 100 µM

compound: O=S1c2ccccc2NC(c2ccc3ccccc3c2)CC1c1ccccc1 (centres undefined)
TGI: 70.1 µM

compound: O=C(NN1C(=O)C(Cl)C1c1ccccc1Cl)c1ccccc1O (centres undefined)
TGI: > 100 µM

* * *

test system: UACC-62 melanoma; assay: NCI tumour cell line growth inhibition, 48 h; in the data active = GI50 below about 0.43 µM; inactive = the rest
Outcomes: active, inactive

molecule: CCOC(=O)Cn1c(-c2nonc2NC(=O)c2ccccc2F)nc2ccccc21
label: inactive
//
molecule: CCCCCCCCNC(C)C(O)c1ccc(SC(C)C)cc1 (configuration not stated)
label: inactive
//
molecule: Cc1ccc2nc3c(n2c1)C(=O)C(=O)c1ccccc1-3
label: active
//
molecule: O=C(Cn1c(C(=O)c2ccc(Cl)cc2)nc(-c2ccccc2)c1-c1ccccc1)c1ccc(Cl)cc1
label: inactive
//
molecule: O=C1CC(c2ccsc2)c2snc(-c3ccc(Cl)cc3)c2N1 (configuration not stated)
label: inactive
//
molecule: Fc1cccc(Cl)c1Cn1c(-c2c(F)cccc2Cl)nc2ccccc21
label: inactive
//
molecule: O=C1NC(=O)[C@@H](c2c[nH]c3ccccc23)[C@@H]1c1c[nH]c2ccccc12
label: inactive
